Values compiled from PubChem BioAssay AID2685.

# assay: qHTS Assay for Lipid Storage Modulators in Drosophila S3 Cells;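 as to cell number change: cells counted by Cell Tracker Red CMTPX staining in the red channel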
# condition: BODIPY lipid droplet fluorescence, 18-24 h, cells fed with added oleic acid; measured here: cell count max response
In all, about 320,000 compounds went through this assay and about 2,100 (0.66%) were called active. Not shown: some 53% with an inconclusive outcome. What follows is part of a selection rich in actives, with near analogues and random picks from the rest.
Measured cell number change of individual entries
readout kind: cell number change

| molecule | experimental value |
| --- | --- |
| CCCCNC(=S)NNC(=O)c1cccnc1 | 0.804% |
| CC[n+]1c(C)sc2cc(C)ccc21 | -15.5% |
| CCN1CCN(C(=O)CNC(=O)c2nn(-c3ccc(OC)cc3)c(=O)c3ccccc23)CC1 | 8.11% |
| COc1ccc(N(CC(=O)NCCSC2CCCCC2)S(=O)(=O)c2ccccc2)cc1OC | -12.6% |
| COc1ccc(C)cc1NC(=O)CSc1nc2scc(C)c2c(=O)[nH]1 | 10.8% |
| COc1ccc(-n2nc(C(=O)NCC(=O)N3CCN(Cc4ccccc4)CC3)c3ccccc3c2=O)c(OC)c1 | 10.3% |
| COc1cccc(NC(=O)CSc2nc3scc(C)c3c(=O)[nH]2)c1 | 2.56% |
| CCOC(=O)C(C(=O)NCCCN1CCOCC1)C1CCCCC1 (stereo unspecified) | 5.53% |
| COc1ccc(N(CC(=O)NCc2ccccc2OC)S(=O)(=O)c2ccccc2)cc1 | 10.9% |
| COc1ccc(N(CC(=O)NCc2ccco2)S(=O)(=O)c2ccccc2)cc1 | 3.25% |
| O=C(NCc1ccccc1)c1ccc(Cl)nc1 | 10% |

* * *

# assay: qHTS Assay for Lipid Storage Modulators in Drosophila S3 Cells;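 as to cell number change: cells counted by Cell Tracker Red CMTPX staining in the red channel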
# condition: BODIPY lipid droplet fluorescence, 18-24 h, cells fed with added oleic acid; measured here: cell count max response
Hit rate of the full screen: of about 320,000 compounds, about 2,100 (0.66%) were called active. Inconclusive results (about 53%) are left out. The sample as a whole holds a higher share of actives than the screen did.
Measured cell number change of individual entries

| compound | cell number change, % |
| --- | --- |
| COc1ccccc1-n1c(SCC(=O)N2CCOCC2)nc(O)cc1=O | -21.1 |
| O=C(COC(=O)c1cc(Cl)ccc1Cl)NCCN1C(=O)CSC1=O | -6.51 |
| CCOc1ccc(NC(=O)NC(C)c2ccc3c(c2)OCO3)cc1 (stereo unspecified) | -0.862 |
| O=C(Nc1ccccn1)c1ccc(Cl)c(S(=O)(=O)N2CCOCC2)c1 | 13.7 |
| CCCCc1c(O)nc(SCC(=O)Nc2cccc3ccccc23)n(-c2ccccc2OC)c1=O | 14.5 |
| CCCCc1c(O)nc(SCC(=O)c2ccccc2)n(-c2ccccc2OC)c1=O | 11.3 |
| CCN(c1ccccc1)S(=O)(=O)c1ccc(OC)c(NC(=O)CN2C(=O)NC(C)(C)C2=O)c1 | -3.73 |
| O=C(CCSc1ccccc1)Nc1ccccc1C(=O)N1CCCC1 | -3.09 |
| COc1ccccc1-n1cnnc1SCC(=O)N1CCOCC1 | -10.4 |
| CCC(C)NC(=O)CSc1c2c(nc3ccccc13)CCCC2 (stereo unspecified) | -7.84 |
| COc1ccccc1-n1cnnc1SCC(=O)N1CCN(C(=O)c2ccco2)CC1 | 21.6 |

* * *

# assay: qHTS Assay for Lipid Storage Modulators in Drosophila S3 Cells; also: potency is read from the fitted curve at half-maximal effect
# condition: BODIPY lipid droplet fluorescence, 18-24 h, cells fed with added oleic acid; series mostly up to 46.1 µM
Hit rate of the full screen: of about 320,000 compounds, about 2,100 (0.66%) were called active. About 53% were inconclusive and are not listed. The list comes from a sample in which actives are over-represented; it also holds close analogues and randomly drawn compounds.
readout kind: Potency

| compound | readout kind | experimental value |
| --- | --- | --- |
| CSc1nc(SCC(=O)NC(c2ccccc2)c2ccccc2)c2c3c(sc2n1)CN(C)CC3 | Potency | inactive |
| CN=C1S/C(=C\c2c(OC)cc(OC)cc2OC)C(=O)N1C | Potency | 0.58 µM (active) |
| COC(=O)C(C(=O)OC)C(C[N+](=O)[O-])c1ccc(OC)cc1 (configuration not stated) | Potency | inactive |
| COc1ccccc1C1C(C#N)=C(N)N(c2cccnc2)C2=C1C(=O)CC(C)(C)C2 (configuration not stated) | Potency | inactive |
| COc1ccc(N=C2S/C(=C\c3cc(C)n(C)c3C)C(=O)N2C)cc1 | Potency | inactive |
| Cc1c(C(N)=O)sc2ncn(CC(=O)N(C)C3CCCCC3)c(=O)c12 | Potency | inactive |
| O=C(CN(Cc1ccc(F)cc1)S(=O)(=O)c1ccccc1)N1CCCCC1 | Potency | inactive |
| CN=C1S/C(=C\c2ccc(SC)cc2)C(=O)N1C | Potency | 0.13 µM (active) |
| COc1ccc(C2CC(c3cccs3)=NN2C(=O)CSc2nc3ccccc3o2)cc1 (configuration not stated) | Potency | 9.2 µM (active) |
| CCNC(=O)CSc1nc(-c2ccc(F)cc2)cs1 | Potency | inactive |
| CN(c1ccccc1)S(=O)(=O)c1cccc(NC(=O)CN2CCc3ccccc3C2)c1 | Potency | inactive |
| COc1cccc(C2CC(c3cccs3)=NN2C(=O)CSc2nc3ccccc3o2)c1OC (configuration not stated) | Potency | inactive |
| CC(C)(CO)N=C1NS(=O)(=O)c2cc([N+](=O)[O-])ccc21 | Potency | inactive |
| CCOC(=O)COc1ccccc1C1Nc2ccccc2C(=O)N1c1cccc(Cl)c1 (configuration not stated) | Potency | inactive |
| C/C(=N\NC(=O)c1ccc(C)cc1)c1c(C)[nH]n(-c2ccccc2)c1=O | Potency | 9.2 µM (active) |
| CCCCCCCc1c(O)nc(SCCN2CCOCC2)[nH]c1=O | Potency | inactive |
| CN=C1S/C(=C\c2ccc(Sc3ccc(Cl)cc3)o2)C(=O)N1C | Potency | inactive |
| CC1CCN(C(=O)CN(Cc2ccc(F)cc2)S(C)(=O)=O)CC1 | Potency | inactive |
| Cc1ccc(C(C[N+](=O)[O-])n2nc(C)cc2C)cc1 (configuration not stated) | Potency | inactive |
| CN=C1S/C(=C\c2ccc(O)c(Br)c2)C(=O)N1C | Potency | inactive |
| CCn1c2ccc(C)cc2c2nc3cc(C(=O)O)ccc3nc21 | Potency | inactive |
| O=C(O)CCn1c2ccccc2c2nc3ccccc3nc21 | Potency | inactive |

* * *

# assay: qHTS Assay for Lipid Storage Modulators in Drosophila S3 Cells
# condition: BODIPY lipid droplet fluorescence, 18-24 h, cells fed with added oleic acid; series mostly up to 46.1 µM
Out of some 320,000 compounds screened, about 2,100 (0.66%) were called active. Inconclusive results (about 53%) are left out. The call rests on the fitted dose curve; in most records, active means well fitted inhibition curve with a large enough effect in the signal ratio, with a control signal flat (not every such curve was filed as active); inconclusive means small, poorly fitted or top-dose-only effect, or effect the other way, or a change in a side signal; inactive means flat fitted curve, though single readings scatter; the % refers to the signal ratio. What follows is part of a selection rich in actives, with near analogues and random picks from the rest.
Possible outcomes: active, inactive

| compound | label |
| --- | --- |
| O=C(CSc1nnc(-c2ccccc2)o1)NC1CC1 | inactive |
| CCOC(=O)C1Cc2ccccc2C(=O)O1 (configuration not stated) | inactive |
| O=C1N(CC(=O)N2CCc3ccccc32)CCN1Cc1ccc(Cl)cc1 | inactive |
| O=S(=O)(Nc1ccc(OC(F)F)cc1)c1ccc(-c2ccon2)s1 | inactive |
| CN1CCN(S(=O)(=O)c2cccc(C(=O)Nc3cc(C(F)(F)F)ccc3N3CCCC3)c2)CC1 | inactive |
| O=C(O)[C@H]1CCCC[C@H]1C(=O)NCCc1ccccc1 | inactive |
| CCN(CC)C(=O)CSc1nc(C)cc(C)n1 | inactive |
| O=S(=O)(NC(=NCCc1ccc(Cl)cc1)c1ccccc1Cl)c1cccs1 | inactive |
| Cc1cc(C)cc(-c2nnc(SCC(=O)NC3CC3)o2)c1 | inactive |
| O=C(NC(=S)NCc1cccnc1)c1cc2ccccc2o1 | inactive |
| C/C(=N\NC(=O)c1cccs1)c1cccnc1 | inactive |
| Cc1ccnc(NC(=O)c2ccc(N3C(=O)CCC3=O)cc2)c1 | inactive |
| COCCNC(=O)C(C)Oc1ccccc1 (configuration not stated) | inactive |
| CCCn1c(SCC(=O)Nc2ccc(NC(C)=O)cc2)nc2c1c(=O)n(C)c(=O)n2C | inactive |
| COC(=O)c1ccc(Cl)c(NC(=O)CN2CCOCC2)c1 | inactive |
| COc1cc(/C=C2\SC(N3CCc4ccccc4C3)=NC2=O)cc(OC)c1OC | inactive |
| Cc1[nH]c(=S)c(C#N)c(-c2ccccc2)c1C(=O)Nc1ccccc1 | active |
| CCC(=O)Nc1ccc2oc(-c3cccnc3)nc2c1 | inactive |
| CC1=C(C)CC(C(=O)NCCc2ccccc2)C(C(=O)O)C1 (configuration not stated) | active |
| c1csc(Cc2nc3ccccc3[nH]2)c1 | inactive |
| COC(=O)c1ccc(Cl)c(NC(=O)CN2CCN(Cc3ccccc3)CC2)c1 | inactive |
| CCOC(=O)c1ccc(NC(=O)CCc2nc(-c3ccc(C)cc3)no2)cc1 | inactive |
| Nc1nc(CN2CCc3ccccc3C2)nc(Nc2ccccc2)n1 | inactive |
| CCC(C)Oc1nc2c(c(=O)n(C)c(=O)n2C)n1C (configuration not stated) | inactive |
| CN(C)CCN(C(=O)c1ccc(C(=O)c2ccccc2)cc1)c1nc2cc3c(cc2s1)OCO3 | inactive |
| FC(F)(F)c1cccc(NC(=S)NCC(c2cccnc2)N2CCOCC2)c1 (configuration not stated) | inactive |
| O=C(Cc1ccc(Cl)cc1)NNC(=O)C1CC=CCC1C(=O)O (configuration not stated) | active |
| CCOc1ccc(-c2noc(-c3cccnc3)n2)cc1OCC | inactive |
| CCCCn1c(CNC(=O)C(C)(C)C)nc2ccccc21 | inactive |
| Cc1cccc(CN2CCC(C(=O)Nc3cccc(-c4cccc(F)c4)c3)CC2)n1 | inactive |
| COC(=O)C1=C(C)N(C)C(=O)NC1c1ccc(C)cc1 (configuration not stated) | inactive |
| O=C(NNC(=O)[C@H]1CC=CC[C@H]1C(=O)O)c1ccc(Cl)cc1Cl | inactive |
| COC(=O)C1=C(C)N(C)C(=O)NC1c1ccccc1 (configuration not stated) | active |
| CC1(C)C2CCC(C2)C1(C)NC(=O)CNC1CCCCC1 (configuration not stated) | inactive |
| COc1ccc(CCNC(=O)C2CC=CCC2C(=O)O)cc1 (configuration not stated) | inactive |
| CCn1c(=O)cc(SCC(=O)NCc2ccccn2)c2ccccc21 | inactive |
| O=C(NNC(=O)C1CC1)c1cc(Cl)nc2ccccc12 | inactive |
| CC1CCN(C(=O)CCNS(=O)(=O)c2ccccc2)CC1 | inactive |
| CCc1c(C(=O)Nc2ccccc2)c(C)[nH]c(=S)c1C#N | inactive |
| CCCn1c(-c2cccc([N+](=O)[O-])c2)nc2c1c(=O)[nH]c(=O)n2Cc1ccccc1 | inactive |
| CC1(C)C2CCC(C2)C1(C)NC(=O)C[N+](C)(C)C (configuration not stated) | inactive |
| O=C(O)C1CC=CCC1C(=O)NCCc1ccccc1 (configuration not stated) | active |
| CC(=O)Cc1nsc(NC(=O)c2ccc(-c3cc(Cl)ccc3Cl)o2)n1 | inactive |
| Cc1ccc(S(=O)(=O)NCC(=O)NCC(=O)N2CCC(C)CC2)cc1 | inactive |
| C=CCOc1ccc(-c2nc3c(c(=O)[nH]c(=O)n3CCCC)n2C)cc1Br | inactive |
| O=C(Nc1cccc(Cl)c1)c1ccc2c(=O)n3c(nc2c1)CCCCC3 | inactive |
| CC(Oc1ccc2c(-c3ccccc3)cc(=O)oc2c1)C(=O)NCC1CCC(C(=O)O)CC1 (configuration not stated) | inactive |
